# IC50 per entry
Molecular target: PRMT5-MTA (Homo sapiens, UniProt O14744)
Sequence (O14744 whole entry): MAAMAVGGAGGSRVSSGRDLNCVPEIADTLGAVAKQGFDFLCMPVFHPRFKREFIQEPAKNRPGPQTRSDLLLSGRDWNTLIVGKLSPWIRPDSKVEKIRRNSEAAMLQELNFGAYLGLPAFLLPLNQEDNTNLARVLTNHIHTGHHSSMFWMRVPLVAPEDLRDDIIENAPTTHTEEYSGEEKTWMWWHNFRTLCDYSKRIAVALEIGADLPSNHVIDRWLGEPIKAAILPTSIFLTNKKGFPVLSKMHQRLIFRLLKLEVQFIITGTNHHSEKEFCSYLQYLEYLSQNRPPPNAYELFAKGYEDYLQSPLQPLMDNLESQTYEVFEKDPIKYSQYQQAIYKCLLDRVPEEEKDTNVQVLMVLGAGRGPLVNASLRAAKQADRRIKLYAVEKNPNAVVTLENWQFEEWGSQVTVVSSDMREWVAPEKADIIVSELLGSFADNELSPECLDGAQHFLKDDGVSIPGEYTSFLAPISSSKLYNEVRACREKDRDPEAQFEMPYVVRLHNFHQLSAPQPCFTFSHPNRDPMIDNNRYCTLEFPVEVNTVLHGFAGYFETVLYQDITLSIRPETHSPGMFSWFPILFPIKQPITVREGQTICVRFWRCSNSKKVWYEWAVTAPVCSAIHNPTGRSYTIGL
Sequence (Q9BQA1 whole entry partner): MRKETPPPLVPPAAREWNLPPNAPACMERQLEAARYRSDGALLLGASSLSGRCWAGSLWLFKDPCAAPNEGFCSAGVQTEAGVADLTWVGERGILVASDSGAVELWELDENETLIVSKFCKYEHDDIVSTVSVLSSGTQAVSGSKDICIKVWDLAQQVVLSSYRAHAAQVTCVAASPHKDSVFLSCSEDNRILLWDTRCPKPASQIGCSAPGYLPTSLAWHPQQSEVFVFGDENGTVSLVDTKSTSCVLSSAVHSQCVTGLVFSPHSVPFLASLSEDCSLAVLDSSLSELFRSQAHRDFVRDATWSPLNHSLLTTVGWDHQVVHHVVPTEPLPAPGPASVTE
Assay: Enzymatic inhibitory activity against PRMT5-MTA (AlphaScreen)
Assay type: biochemical
Conditions: read-out: IC50
Description: The AlphaScreen method was used to detect the enzymatic inhibitory activity of the compounds against PRMT5-MTA. 1 x Methyltransferase assay buffer IV (signalchem) was prepared as a solution for diluting each component for the enzymatic reaction. […] The signal values were detected for the well plate through the Alpha method using an Envision multifunctional microplate-reader, and the IC50 values for inhibition of the compounds on PRMT5/MET50 enzyme activity were calculated in Xlfit 5.0 software. […]
measuredMetric: IC50 (nM)

1. Cn1ncc2c(N)nc3cc(Cl)c(C(=O)N4CC5(CN4c4cccc(F)n4)CC(F)(F)C5)cc3c21
6.2
2. Cc1cc2cc(C(=O)N(Cc3ccc(C(F)(F)F)cn3)N(C)c3c(F)cccc3C(F)(F)F)ccc2nc1N
1.9
3. Cc1cc2cc(C(=O)N(Cc3ccc(C(F)(F)F)cn3)N(c3ncccn3)C3CC3)c(F)cc2nc1N
5.7
4. Cc1cc2cc(C(=O)N(Cc3ccc(-c4cnn(C5CC5)c4)cn3)N(C)c3ncccn3)ccc2nc1N
2.1

###

List of Selectivity HCT 116-WT/ HCT116 MTAP KO values.
Tested on: HCT116 MTAP KO cells
Test: Inhibitory activity against cell proliferation (CellTiter Glo, 6 days), HCT116 MTAP KO
Type: cell-based
Settings: ratio of IC50 HCT116-WT / HCT116 MTAP KO
measuredMetric: Selectivity HCT 116-WT/ HCT116 MTAP KO

1) Cc1ccnc(N(C)N(Cc2ccc(C(F)(F)F)cn2)C(=O)c2ccc3nc(N)c(C)cc3c2)n1 [Example 49]
22.18
2) Cc1cc2cc(C(=O)N(Cc3ccc(-c4cnn(C)c4)cn3)N(c3ncccn3)C3CC3)ccc2nc1N [Example 152]
28.51
3) CCOC1CN(C(=O)c2cc3c(cc2C)nc(N)c2cnn(C)c23)N(c2ncccc2F)C1 (stereo not shown) [Example 453]
22.74
4) Cc1cc2nc(N)c3cnn(C)c3c2cc1C(=O)N1CC(C)CN1c1ncccc1Cl (stereo not shown) [Example 369]
32.12
5) Cc1ncc(-c2cnc(N3CC(C)CN3C(=O)c3cc4c(cc3C)nc(N)c3cnn(C)c34)c(F)c2)s1 (stereo not shown) [Example 476]
33.64
6) Cc1cc2cc(C(=O)N(Cc3ccc(C(F)(F)F)cn3)N(c3ncccn3)C3CCC3)ccc2nc1N [Example 83]
14.39
7) Cc1cc2cc(C(=O)N(Cc3ccc(C4CC4)cn3)N(C)c3ncccc3F)ccc2nc1N [Example 164]
22.15
8) Cc1cc2cc(C(=O)N(Cc3ccc(C(F)(F)F)cn3)N(C)c3cnccn3)ccc2nc1N [Example 34]
21.90
9) Cc1cc2nc(N)c3cnn(C)c3c2cc1C(=O)N1CC(C)CN1c1ncc(-c2cnn(C(F)(F)F)c2)cc1F (stereo not shown) [Example 472]
32.37
10) Cc1cc2cc(C(=O)N(Cc3ccc(-c4ccc(N(C)C(C)C)nc4)cn3)N(C)c3ncccn3)ccc2nc1N [Example 257]
13.42
11) Cc1cc2cc(C(=O)N(Cc3ccc(C(C)(F)F)cn3)N(C)c3ncccn3)ccc2nc1N [Example 291]
26.90
12) Cc1cnc(N(C)N(Cc2ccc(C(F)(F)F)cn2)C(=O)c2ccc3nc(N)c(C)cc3c2)nc1 [Example 276]
24.70
13) Cn1ncc2c(N)nc3cc(Cl)c(C(=O)N4CC(C)(F)CN4c4ncc(Br)cc4F)cc3c21 (stereo not shown) [Example 420]
28.58
14) Cc1cc2cc(C(=O)N(Cc3ccc(-c4cnn(C5CC5)c4)cn3)N(C)c3ncccn3)ccc2nc1N [Example 192]
27.66
15) Cc1cc2nc(N)c3cnn(C)c3c2cc1C(=O)N1CC(F)CN1c1ncccc1F (stereo not shown) [Example 450]
61.20
16) Cc1cc2nc(N)c3cnn(C)c3c2cc1C(=O)N1CC(=O)CN1c1ncccc1F [Example 354]
40.76

###

Target: PRMT5-MTA (Homo sapiens, UniProt O14744)
Assay: Enzymatic inhibitory activity against PRMT5-MTA (AlphaScreen)
Assay type: biochemical
pIC50: −log10 of the molar value.
measuredMetric: pIC50

1) Cc1cc2nc(N)c3cnn(C)c3c2cc1C(=O)N(C)N1c2ccccc2CC1C (stereo not drawn)
8.40
2) Cn1ncc2c(N)nc3cc(Cl)c(C(=O)N4CC(C)(F)CN4c4ccccc4F)cc3c21 (stereo not drawn)
8.34
3) Cc1cc2nc(N)c3cnn(C)c3c2cc1C(=O)N1CCCN1c1ncc(-c2ccc(N3CCN(C)CC3)nc2)cc1F
7.72
4) CN(C(=O)c1cc2c(cc1F)nc(N)c1cnn(C)c12)N1CCc2nc(Br)ccc21
8.60
5) COC1CN(C(=O)c2cc3c(cc2C)nc(N)c2cnn(C)c23)N(c2ccccc2F)C1 (stereo not drawn)
8.32
6) COc1cccc(N2CC(C)CN2C(=O)c2cc3c(cc2C)nc(N)c2cnn(C)c23)n1 (stereo not drawn)
8.37
7) Cc1cc2nc(N)c3cnn(C)c3c2cc1C(=O)N1CC(CC(F)(F)F)CN1c1ncccc1F (stereo not drawn)
8.32
8) Cc1cc2nc(N)c3c(c2cc1C(=O)N1CC(C)CN1c1ncccc1F)COC3C (stereo not drawn)
8.32
9) Cn1ncc2c(N)nc3cc(Cl)c(C(=O)N4CC(CF)CN4c4ncccc4F)cc3c21 (stereo not drawn)
8.57
10) COCC1CN(C(=O)c2cc3c(cc2C)nc(N)c2cnn(C)c23)N(c2ncccc2F)C1 (stereo not drawn)
8.47
11) Cc1cc2nc(N)c3cnn(C)c3c2cc1C(=O)N(C)N1CCc2ccccc21
8.37
12) Cc1cc2nc(N)c3cnn(C)c3c2cc1C(=O)N1CC(C)CN1c1ncc(C2CC2)cc1F (stereo not drawn)
8.32

###

Target: PRMT5-MTA (Homo sapiens, UniProt O14744)
Experiment: Enzymatic inhibitory activity against PRMT5-MTA (AlphaScreen)
Type: biochemical
Conditions: read-out: IC50
Criterion: IC50 strictly under 5 nM. Met: 1. Not met: 0.

1. Nc1nc2ccc(C(=O)N3CCCN3c3ccc(C(F)(F)F)cn3)cc2c2c1COC2 [Example 341]
1
2. [2H]C([2H])([2H])c1cc2cc(C(=O)N(Cc3ccc(C(F)(F)F)cn3)N(C)c3ncccn3)ccc2nc1N [Example 310]
1
3. Cc1cc2cc(C(=O)N(Cc3ccc(Br)cn3)N(C)c3ncccn3)ccc2nc1N [Example 67]
1
4. Cc1cc2nc(N)c3cnn(C)c3c2cc1C(=O)N1CC(C)CN1c1ccncc1F (stereo not shown) [Example 379]
0
5. Cc1cc2cc(C(=O)N(Cc3ccc(-c4scnc4C(F)(F)F)cn3)N(C)c3ncccn3)ccc2nc1N [Example 237]
0
6. CC(C)c1cc2cc(C(=O)N(Cc3ccc(C(F)(F)F)cn3)N(C)c3ncccn3)ccc2nc1N [Example 26]
1
7. Cc1cc2cc(C(=O)N(Cc3ccc(C(F)(F)F)cn3)N(C)c3nccc(C#N)n3)ccc2nc1N [Example 110]
1
8. Cn1ncc2c(N)nc3cc(Cl)c(C(=O)N4CC(C)(F)CN4c4ncc(F)cc4F)cc3c21 (stereo not shown) [Example 424]
0
9. Cc1cc2nc(N)c3c(cnn3C)c2cc1C(=O)N(Cc1ccc(C(F)(F)F)cn1)N(C)c1ncccn1 [Example 81]
0
10. Cc1cc2nc(N)c3cnn(C)c3c2cc1C(=O)N1CC(C)CN1c1ccc(F)cc1F (stereo not shown) [Example 381]
1
11. Cc1cc2nc(N)c3cnn(C)c3c2cc1C(=O)N1CC(C)CN1c1ccccc1 (stereo not shown) [Example 396]
0
12. COCCN(c1ncccn1)N(Cc1ccc(C(F)(F)F)cn1)C(=O)c1ccc2nc(N)c(C)cc2c1 [Example 4]
1
13. Cc1cc2cc(C(=O)N(Cc3ccc(-c4scnc4C(F)F)cn3)N(c3ncccn3)C3CC3)ccc2nc1N [Example 239]
0
14. C=Cc1cc2cc(C(=O)N(Cc3ccc(C(F)(F)F)cn3)N(C)c3ncccn3)ccc2nc1N [Example 304]
1
15. Cc1cc2cc(C(=O)N(Cc3ccc(-c4scnc4C)cn3)N(c3ncccn3)C3CC3)ccc2nc1N [Example 184]
0
16. Cc1cc2cc(C(=O)N(Cc3ccc(-c4ccncc4)cn3)N(C)c3ncccc3F)ccc2nc1N [Example 178]
1

###

Measured Selectivity HCT 116-WT/ HCT116 MTAP KO, listed per entry for reference.
Test system: HCT116 MTAP KO cells
Test: Inhibitory activity against cell proliferation (CellTiter Glo, 6 days), HCT116 MTAP KO
Assay type: cell-based
Details: ratio of IC50 HCT116-WT / HCT116 MTAP KO
measuredMetric: Selectivity HCT 116-WT/ HCT116 MTAP KO

1) Cc1cc2cc(C(=O)N(Cc3ccc4ccccc4n3)N(C)c3ncccn3)ccc2nc1N
17.78
2) Cc1cc2cc(C(=O)N(Cc3ccc(C(F)(F)F)cn3)N(C)c3nccc4nc(C)c(C)nc34)ccc2nc1N
13.13
3) Cn1ncc2c(N)nc3cc(Cl)c(C(=O)N4CC(C)(F)CN4c4ccccc4F)cc3c21 (centres unmarked)
16.14
4) Cc1cc2nc(N)c3cnn(C)c3c2cc1C(=O)N1CCCCN1c1ccc(C(F)(F)F)cn1
22.90
5) Cc1cc2cc(C(=O)N(Cc3ccc(C(F)(F)F)cn3)N(C)c3ncccc3C(F)F)ccc2nc1N
14.00
6) Cc1cc2cc(C(=O)N(Cc3ccc(C(F)(F)F)cn3)N(c3ncccn3)C3CC3)ccc2nc1N
21.04
7) Cc1cc2cc(C(=O)N(Cc3ccc(-c4cnn(C5COC5)c4)cn3)N(C)c3ncccn3)ccc2nc1N
24.95
8) CCC1(F)CN(C(=O)c2cc3c(cc2C)nc(N)c2cnn(C)c23)N(c2ncccc2F)C1 (centres unmarked)
27.28
